Target: human neutrophil elastase (hNE) (Homo sapiens)
Sequence: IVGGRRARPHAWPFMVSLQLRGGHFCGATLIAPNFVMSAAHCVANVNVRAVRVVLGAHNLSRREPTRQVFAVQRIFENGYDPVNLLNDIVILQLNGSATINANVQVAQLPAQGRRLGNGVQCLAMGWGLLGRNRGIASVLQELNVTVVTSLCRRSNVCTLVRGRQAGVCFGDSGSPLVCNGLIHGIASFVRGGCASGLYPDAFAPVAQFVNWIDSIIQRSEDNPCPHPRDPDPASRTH
Assay: filter
Conditions: 5-BrdU replaces T; apparent photocrosslink KD; plateau 32%; rate 0.28
observation.type: pKd
The quantity pKd is defined as the negative base-10 logarithm of the molar concentration.

So what pKd did ATATATATGGGAGGACGATGCGGGCCAATCTGTCTTCTTTCCATCCTTATGATCAGACGACGAGCGGGAAAAAAAA [hNE pool 2 clone 73] get with human neutrophil elastase (hNE) (Homo sapiens)?
7.54

====

target: platelet-derived growth factor (PDGF) (Homo sapiens) (UniProt P01127); test: filter; conditions: 5-BrdU replaces T; apparent photocrosslink KD; plateau 100%; rate 0.24
Sequence (P01127 82-190): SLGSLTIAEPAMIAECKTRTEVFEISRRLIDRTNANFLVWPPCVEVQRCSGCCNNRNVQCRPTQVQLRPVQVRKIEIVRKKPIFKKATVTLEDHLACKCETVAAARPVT
observation.type: Kd (nM)
Numeric answer only, unit nM assumed.

Returns the measured Kd for the input sequence. Input: ATATATATGGGAGGACGATGCGGGGGGCAAGAAGCACGGTACCCCAGGTCCGCCAGACGACGAGCGGGAAAAAAAA [PDGF pool 008 clone 33]
5.7

====

biological target: Transforming Growth Factor beta1 (TGF-beta1); test: filter; conditions: 5-BrdU replaces T; apparent photocrosslink KD; plateau 80%; rate 0.82
observation.type: pKd
pKd is defined as minus the log10 of a concentration measured in mol/L.

Entry ATATATATGGGAGGACGATGCGGGCACCTTTCTTACATCTTGGCTTCATTCTTGCACCATTGGCAGACGACGAGCGGGAAAAAAAA [TGF-beta1 pool 015 clone 83] has what pKd?
8.37

====

target: alpha-thrombin (Homo sapiens) (UniProt P00734+P00734); experiment: filter; conditions: 5-BrdU replaces T; apparent photocrosslink KD; plateau 25%; rate 0.4
observation.type: Kd

Entry ATATATATGGGAGGACGATGCGGGCAGTAGGTTGGGTAGGGTGGTCTGCTCAGACGACGAGCGGGAAAAAAAA [Thrombin pool 5 clone 4] has what Kd?
0.03 nM

====

molecular target: platelet-derived growth factor (PDGF) (Homo sapiens); test: filter; settings: 5-BrdU replaces T; apparent photocrosslink KD; plateau 100%; rate 0.34
observation.type: pKd
Bear in mind: pKd is minus log10 of a mol/L concentration; give just that figure.

For the record ATATATATGGGAGGACGATGCGGGCGGCAGACGCGCCGGGTACCCCAGGTCCCCAGACGACGAGCGGGAAAAAAAA [PDGF pool 008 clone 27] , what value of pKd is listed for platelet-derived growth factor (PDGF) (Homo sapiens)?
8.49

====

molecular target: platelet-derived growth factor (PDGF) (Homo sapiens) (UniProt P01127); test: filter; conditions: 5-BrdU replaces T; apparent photocrosslink KD; plateau 100%; rate 0.19
observation.type: Kd (nM)
The reply should contain only the number, in nM.

Would you mind telling me what Kd value was observed for ATATATATGGGAGGACGATGCGGCACAAGGAACAAAGCGGCCCCTATCCCCAACAGACGACGAGCGGGAAAAAAAA [PDGF pool 008 clone 31] ?
5.3
